Reference for the values: patent US20240398784A1

target: LRRK2 G2019S (Homo sapiens, UniProt Q5S007, G2019S); experiment: LRRK2 G2019S Km ATP LanthaScreen assay; assay type: biochemical; settings: read-out: LRRK2 pIC50 (converted)
Sequence (Q5S007 whole entry G2019S): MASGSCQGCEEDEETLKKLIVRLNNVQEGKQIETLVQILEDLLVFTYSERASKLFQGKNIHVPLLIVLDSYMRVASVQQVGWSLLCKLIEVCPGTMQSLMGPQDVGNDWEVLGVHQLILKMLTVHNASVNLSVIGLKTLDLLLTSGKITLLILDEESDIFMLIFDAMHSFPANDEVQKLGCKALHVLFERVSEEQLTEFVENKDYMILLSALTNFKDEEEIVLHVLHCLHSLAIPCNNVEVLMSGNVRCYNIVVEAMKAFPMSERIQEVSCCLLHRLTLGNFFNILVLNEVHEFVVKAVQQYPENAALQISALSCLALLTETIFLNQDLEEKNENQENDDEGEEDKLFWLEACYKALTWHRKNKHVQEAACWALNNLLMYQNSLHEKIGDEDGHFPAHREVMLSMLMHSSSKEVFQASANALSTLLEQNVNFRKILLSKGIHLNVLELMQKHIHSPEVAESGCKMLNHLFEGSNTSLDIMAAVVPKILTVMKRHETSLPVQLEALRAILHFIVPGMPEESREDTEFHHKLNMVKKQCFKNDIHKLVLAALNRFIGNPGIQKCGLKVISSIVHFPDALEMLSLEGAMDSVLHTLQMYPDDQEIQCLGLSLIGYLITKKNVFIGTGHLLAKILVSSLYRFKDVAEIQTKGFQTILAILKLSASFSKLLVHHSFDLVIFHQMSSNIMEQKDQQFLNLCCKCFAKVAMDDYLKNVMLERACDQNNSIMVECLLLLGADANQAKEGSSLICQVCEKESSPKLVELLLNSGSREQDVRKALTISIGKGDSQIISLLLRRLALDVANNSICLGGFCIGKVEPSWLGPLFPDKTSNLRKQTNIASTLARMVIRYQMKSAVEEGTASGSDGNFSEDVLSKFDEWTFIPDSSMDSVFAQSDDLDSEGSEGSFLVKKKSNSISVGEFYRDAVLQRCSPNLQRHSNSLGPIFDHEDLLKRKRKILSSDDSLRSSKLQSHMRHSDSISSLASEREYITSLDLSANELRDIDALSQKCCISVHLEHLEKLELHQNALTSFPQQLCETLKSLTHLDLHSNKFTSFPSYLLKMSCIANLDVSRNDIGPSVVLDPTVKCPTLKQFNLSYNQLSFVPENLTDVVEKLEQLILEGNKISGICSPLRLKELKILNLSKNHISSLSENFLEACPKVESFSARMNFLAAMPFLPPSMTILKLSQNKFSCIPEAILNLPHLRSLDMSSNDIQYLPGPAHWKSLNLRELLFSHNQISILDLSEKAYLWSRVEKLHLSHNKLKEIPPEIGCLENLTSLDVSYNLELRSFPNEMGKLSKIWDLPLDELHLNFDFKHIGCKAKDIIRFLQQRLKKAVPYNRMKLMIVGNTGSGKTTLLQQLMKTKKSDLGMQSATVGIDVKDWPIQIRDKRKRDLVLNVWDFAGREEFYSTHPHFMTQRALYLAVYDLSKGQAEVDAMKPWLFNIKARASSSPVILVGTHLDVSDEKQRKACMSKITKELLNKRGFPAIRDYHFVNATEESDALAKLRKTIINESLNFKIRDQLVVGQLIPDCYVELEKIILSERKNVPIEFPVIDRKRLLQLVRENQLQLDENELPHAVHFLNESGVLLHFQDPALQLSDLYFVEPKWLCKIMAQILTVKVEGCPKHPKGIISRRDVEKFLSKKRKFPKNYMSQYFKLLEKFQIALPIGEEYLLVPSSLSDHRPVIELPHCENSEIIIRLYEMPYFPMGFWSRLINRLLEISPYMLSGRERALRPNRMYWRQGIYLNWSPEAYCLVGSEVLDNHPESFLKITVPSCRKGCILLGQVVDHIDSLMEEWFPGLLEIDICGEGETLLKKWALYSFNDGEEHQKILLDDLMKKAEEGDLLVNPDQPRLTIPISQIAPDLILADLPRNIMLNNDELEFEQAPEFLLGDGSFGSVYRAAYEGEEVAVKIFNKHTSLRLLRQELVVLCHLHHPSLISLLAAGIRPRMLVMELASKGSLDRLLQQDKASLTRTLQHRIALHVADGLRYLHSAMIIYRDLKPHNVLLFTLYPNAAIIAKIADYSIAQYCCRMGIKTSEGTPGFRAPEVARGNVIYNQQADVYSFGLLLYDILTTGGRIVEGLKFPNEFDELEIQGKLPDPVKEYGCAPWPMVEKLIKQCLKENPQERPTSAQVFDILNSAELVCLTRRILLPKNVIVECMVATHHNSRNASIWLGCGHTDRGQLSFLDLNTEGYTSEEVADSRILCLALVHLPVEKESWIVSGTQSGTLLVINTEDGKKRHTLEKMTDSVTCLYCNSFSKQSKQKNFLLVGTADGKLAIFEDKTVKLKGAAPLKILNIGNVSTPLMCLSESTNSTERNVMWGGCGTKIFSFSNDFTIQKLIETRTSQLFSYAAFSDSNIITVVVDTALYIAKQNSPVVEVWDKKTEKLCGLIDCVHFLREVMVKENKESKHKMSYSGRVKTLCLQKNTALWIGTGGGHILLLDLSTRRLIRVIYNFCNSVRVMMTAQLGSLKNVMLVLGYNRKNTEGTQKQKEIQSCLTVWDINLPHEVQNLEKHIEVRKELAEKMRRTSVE
quantity-measured: log10 IC50 (log10 of the value in nM)
Friendly reminder: values = log10 of IC50, unit nM.

compound Cc1cc2cnc(NC(=O)C3CC3c3ccccn3)cc2cc1C1CCN(C2(C)CCOC2)CC1 (single isomer, unassigned) [Ex-16.11] , log10 IC50 observed: -0.02

compound CC1(C)CCC(C(=O)Nc2cc3cc(C4CCC(N5CCC(F)C5)CC4)c(Cl)cc3cn2)CO1 (single isomer, unassigned) [Ex-5.19] , log10 IC50 observed: 0.37

compound N#CC1(c2ccc3cnc(NC(=O)C4CCC4)cc3c2)CC12CC2 (single isomer, unassigned) , log10 IC50 observed: 0.51

compound Cn1cc(C(=O)Nc2cc3cc(C4CCN(C5COCC5O)CC4)c(Cl)cc3cn2)cn1 (stereo not drawn) , log10 IC50 observed: -0.20

compound O=C(Nc1cc2cc(C3CCN(C4COCC4O)CC3)c(Cl)cc2cn1)C1CC1 (single isomer, unassigned) [Ex-12.5] , log10 IC50 observed: 0.46

compound N#CC1(c2ccc3cnc(NC(=O)C4CCN(C(=O)C(F)(F)F)CC4)cc3c2)CC12CC2 (single isomer, unassigned) , log10 IC50 observed: 1.15

----------
molecular target: LRRK2 G2019S (Homo sapiens, UniProt Q5S007, G2019S); test: LRRK2 G2019S Km ATP LanthaScreen assay; assay type: biochemical; conditions: read-out: LRRK2 pIC50 (converted)
Label 1 when IC50 < 4 nM; otherwise -1.

[
  {
    "molecule": "CC1(N2CCC(c3cc4cc(NC(=O)C5CC5c5cc(F)ccn5)ncc4cc3Cl)CC2)COCC1O (single isomer, unassigned) [Ex-4.39]",
    "assigned-category": -1
  },
  {
    "molecule": "CC1(C)CCC(C(=O)Nc2cc3cc(C4CCC(N5CCC(F)C5)CC4)c(Cl)cc3cn2)CO1 (single isomer, unassigned) [Ex-5.21]",
    "assigned-category": -1
  },
  {
    "molecule": "CC1CC1(C#N)c1ccc2cnc(NC(=O)C3CC3)cc2c1 (single isomer, unassigned) [Ex-18.5]",
    "assigned-category": -1
  }
]

-- ask Find out if reported IC50 for CC1(N2CCC(c3cc4cc(NC(=O)C5C6CCCOC65)ncc4cc3Cl)CC2)COCC1O (single isomer, unassigned) [Ex-4.11] is less than 4 nM
-- reply 1

-- ask Find out if reported IC50 for CC1(N2CCC(c3cc4cc(NC(=O)C5CC56CCC(F)(F)CC6)ncc4cc3Cl)CC2)COCC1O (stereo not drawn) [Ex-2.17] is less than 4 nM
-- reply -1

-- ask Find out if reported IC50 for CC1(N2CCC(c3cc4cc(NC(=O)C5CC56CCOCC6)ncc4cc3Cl)CC2)COC(C2CC2)C1 (single isomer, unassigned) [Ex-6.16] is less than 4 nM
-- reply 1
